Recorded TGI values for a group of compounds are listed next.
Test system: OVCAR-8 ovarian
Experiment: NCI tumour cell line growth inhibition, 48 h
value_kind: TGI (µM)

compound: CCCCCCCCCCCCCCCCP(=O)(OC)OC
experimental_target: OVCAR-8 ovarian
value_units: µM
prefix_operator: =
readout_value: 30.9
//
compound: S=C(Nc1c2c(nc3ccccc13)CCCC2)Nc1c2c(nc3ccccc13)CCCC2
experimental_target: OVCAR-8 ovarian
value_units: µM
prefix_operator: >
readout_value: 100
//
compound: O=C(O)c1ccccc1SCc1cccc2c(=O)c3ccc(Cl)cc3oc12
experimental_target: OVCAR-8 ovarian
value_units: µM
prefix_operator: >
readout_value: 50
//
compound: O=c1nc2sc3ccc4ccccc4c3n2nc1-c1ccccc1
experimental_target: OVCAR-8 ovarian
value_units: µM
prefix_operator: =
readout_value: 42.2
//
compound: CC1(C)CCC(S(=O)(=O)c2ccc3c(c2)/C(=N\O)c2cc(S(=O)(=O)N4CCN(c5ccc(F)cc5O)CC4)ccc2-3)CC1
experimental_target: OVCAR-8 ovarian
value_units: µM
prefix_operator: =
readout_value: 0.402
//
compound: CC(=O)Oc1ccc2c(c1OC(C)=O)CCC1C2=CC[C@]2(C)C(=O)CCC12 (stereo partly specified)
experimental_target: OVCAR-8 ovarian
value_units: µM
prefix_operator: =
readout_value: 27.7

---

System: SN12C renal
Assay: NCI tumour cell line growth inhibition, 48 h
Recorded TGI values for a group of molecules are listed next.
value_kind: TGI (µM)

molecule: Cc1cc2c(cc1C)N1C(Cl)=C3CCCCC3=C(C#N)C1N2 (centres undefined)
experimental_target: SN12C renal
value_kind: TGI
prefix_operator: =
readout_value: 14.7
//
molecule: Cn1c(-c2ccc(/C=N/N=C/c3ccc(-c4c[n+]5ccccc5n4C)cc3)cc2)c[n+]2ccccc12
experimental_target: SN12C renal
value_kind: TGI
prefix_operator: >
readout_value: 100
//
molecule: Nc1nc(-c2cccc3ccccc23)cc2ccccc12
experimental_target: SN12C renal
value_kind: TGI
prefix_operator: =
readout_value: 16
//
molecule: COc1ccccc1N=Nc1c(-c2ccccc2)nn(C(=O)CC(=O)Nc2ccccc2Cl)c1-c1ccccc1
experimental_target: SN12C renal
value_kind: TGI
prefix_operator: >
readout_value: 100
//
molecule: O=P(O)(OP(=O)(O)c1ccccc1)c1ccccc1 (tested in a mixture with another compound)
experimental_target: SN12C renal
value_kind: TGI
prefix_operator: >
readout_value: 100
//
molecule: Cc1cc(OCc2n[nH]c(=S)n2/N=C/c2ccc(F)cc2)ccc1Cl
experimental_target: SN12C renal
value_kind: TGI
prefix_operator: =
readout_value: 37.1
//
molecule: C=C(C)[C@@H]1CC[C@]2(CNCCO)CC[C@]3(C)[C@H](CC[C@@H]4[C@@]5(C)CCC(N)[C@@](C)(CO)[C@@H]5CC[C@]43C)[C@@H]12 (some centres undefined)
experimental_target: SN12C renal
value_kind: TGI
prefix_operator: =
readout_value: 3.41
//
molecule: O=c1c(O)c(O)c1=O.[NH2-].[NH2-].[NH2-].[NH2-].[NH2-].[Ru+5]
experimental_target: SN12C renal
value_kind: TGI
prefix_operator: >
readout_value: 100
//
molecule: O=C1c2ccccc2C(=O)N1C/C=N/NS(=O)(=O)c1ccc2ccccc2c1
experimental_target: SN12C renal
value_kind: TGI
prefix_operator: >
readout_value: 100
